Test system: PARP1/2
experiment: In vitro binding kinetics by recovery of PARPi-FL binding (flow cytometry)
Type: cell-based, human
condition_label: JHU-LX22 cells, 0.2 µM inhibitor 25 min, washed, 0-48 h post-incubation, two phase decay fit
value_kind: Retention on PARP1/2 binding sites, in words

compound: O=C(c1ccc(F)cc1)N1CCN(C(=O)c2cc(Cc3n[nH]c(=O)c4ccccc34)ccc2F)CC1 [^19F-PARPi]
result: longest retention
--
compound: Cn1ncnc1[C@H]1c2n[nH]c(=O)c3cc(F)cc(c23)N[C@@H]1c1ccc(F)cc1
result: longest retention
--
compound: CNCc1ccc(-c2[nH]c3cc(F)cc4c3c2CCNC4=O)cc1
result: longest retention

###

experimental_system: UniProt:Q9UGN5
Sequence (Q9UGN5 whole entry): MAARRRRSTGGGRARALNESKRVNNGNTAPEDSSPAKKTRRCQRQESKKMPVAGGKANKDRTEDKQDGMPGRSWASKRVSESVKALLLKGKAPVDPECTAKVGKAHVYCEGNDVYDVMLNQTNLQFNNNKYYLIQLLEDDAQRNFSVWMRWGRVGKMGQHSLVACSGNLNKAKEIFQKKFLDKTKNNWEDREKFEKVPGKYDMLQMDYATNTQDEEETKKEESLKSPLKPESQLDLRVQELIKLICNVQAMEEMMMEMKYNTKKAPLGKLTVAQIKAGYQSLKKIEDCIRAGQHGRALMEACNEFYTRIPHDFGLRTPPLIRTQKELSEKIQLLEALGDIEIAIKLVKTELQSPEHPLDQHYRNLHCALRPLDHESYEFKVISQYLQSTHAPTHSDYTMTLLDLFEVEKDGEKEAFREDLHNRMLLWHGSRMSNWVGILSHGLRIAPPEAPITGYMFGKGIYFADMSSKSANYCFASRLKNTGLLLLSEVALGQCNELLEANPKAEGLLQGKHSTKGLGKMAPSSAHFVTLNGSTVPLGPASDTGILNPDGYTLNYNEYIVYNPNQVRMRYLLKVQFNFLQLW
value_kind: IC50 (pM)
Value expressed in pM; do not type the unit.

Incoming: Check the records and state IC50 for O=C(c1ccc([18F])cc1)N1CCN(C(=O)c2cc(Cc3n[nH]c(=O)c4ccccc34)ccc2F)CC1 [[^18F]PARPi]
Outgoing: 210

Origin of measurements: paper PMC5766608
